- System: retinal precursor cells
- Assay Info: Sphere passaging and high-throughput drug screening: proliferation of retinal precursor cells within one week
- Assay type: cell-based, mammalian
- Recorded Conditions: retinal precursor cells grown one week with compound in 0.1% DMSO; control without compound = 100; concentration not given
Readout Type: Cell proliferation within one week [%] (%)
Answers are plain numbers, in %.

>>> print(df.to_string())
                                smiles_data                   system                            readout_type  measured
0  O=C(Cc1cccc(OC(F)F)c1)Nc1ccc(-c2cnco2)c(Cl)c1  retinal precursor cells  Cell proliferation within one week [%]       122
1     O=C(Cc1ccccc1)Nc1ccc(-c2cnco2)c(Cl)c1  retinal precursor cells  Cell proliferation within one week [%]       149
2  COc1cccc(CC(=O)Nc2ccc(-c3cnco3)c(F)c2)c1  retinal precursor cells  Cell proliferation within one week [%]       127

Give Cell proliferation within one week [%] for each listed item.
1. O=C(Cc1ccccc1)Nc1ccc(-c2cnco2)c(F)c1
2. O=C(Cc1cccc(OC(F)F)c1)Nc1ccc(-c2cnco2)c(F)c1
3. O=C(Cc1ccc(Cl)cc1)Nc1ccc(-c2cnco2)c(F)c1
4. COc1cccc(CC(=O)Nc2ccc(-c3cnco3)c(Cl)c2)c1
5. O=C(Cc1ccccc1C(F)(F)F)Nc1ccc(-c2cnco2)c(Cl)c1
6. O=C(Cc1ccc(F)cc1F)Nc1ccc(-c2cnco2)c(Cl)c1

[123, 120, 107, 203, 142, 157]

* * *

- Tested on: retinal precursor cells
- Assay Info: Sphere passaging and high-throughput drug screening: proliferation of retinal precursor cells within one week
- Format: cell-based, mammalian
- Recorded Conditions: retinal precursor cells grown one week with compound in 0.1% DMSO; control without compound = 100; concentration not given
- Procedure: Kynurenic Acid (0.2 mg/mL), trypsin (1.33 mg/mL), and hyaluronidase (0.67 mg/mL) were weighed out and dissolved in high magnesium/low calcium artificial cerebral spinal fluid (aCSF) at 37° C. […] A dissecting microscope, cold light source, and sterile surgical instruments were set up inside of a sterile biological safety cabinet (BSC). […] The cells and media were mixed to ensure a uniform cell suspension and a 10 uL sample was taken and cell density was determined. […]
Please respond with reported Cell proliferation within one week [%] for every item in the list.
Give bare numbers, in %.

In [3]: df
Out[3]:
                                smiles_data  measured
0    O=C(Cc1ccccc1Cl)Nc1ccc(-c2cnco2)c(F)c1       137
1  O=C(Cc1cccc(C(F)(F)F)c1)Nc1ccc(-c2cnco2)c(F)c1       105
2  O=C(Cc1ccccc1OC(F)F)Nc1ccc(-c2cnco2)c(Cl)c1       135
3  O=C(Cc1cccc(Br)c1)Nc1ccc(-c2cnco2)c(Cl)c1       143
4  O=C(Cc1ccccc1C(F)(F)F)Nc1ccc(-c2cnco2)c(F)c1       118
5  O=C(Cc1ccccc1OC(F)F)Nc1ccc(-c2cnco2)c(F)c1       119
6   COc1ccccc1CC(=O)Nc1ccc(-c2cnco2)c(Cl)c1       128
7  O=C(Cc1cccc(C(F)(F)F)c1)Nc1ccc(-c2cnco2)c(Cl)c1       134

Count: 3. Required value per item: Cell proliferation within one week [%].
1. COc1ccccc1CC(=O)Nc1ccc(-c2cnco2)c(F)c1
2. O=C(Cc1ccc(F)cc1F)Nc1ccc(-c2cnco2)c(F)c1
3. O=C(Cc1cc(F)ccc1Cl)Nc1ccc(-c2cnco2)c(F)c1

1. 106
2. 140
3. 133

* * *

- Tested on: retinal precursor cells
- Assay Info: Sphere passaging and high-throughput drug screening: proliferation of retinal precursor cells within one week
- Type: cell-based, mammalian
- Recorded Conditions: retinal precursor cells grown one week with compound in 0.1% DMSO; control without compound = 100; concentration not given
Provide the recorded Cell proliferation within one week [%] for the entries that follow.

The examples below pair each entry with its known result.
In [3]: df
Out[3]:
                                smiles_data  measured
0  O=C(Cc1cc(F)ccc1Cl)Nc1ccc(-c2cnco2)c(Cl)c1      121%
1  O=C(Cc1ccc(Cl)cc1)Nc1ccc(-c2cnco2)c(Cl)c1      133%

Now for a further molecule.
Would you kindly share the measured Cell proliferation within one week [%] for O=C(Cc1ccccc1Cl)Nc1ccc(-c2cnco2)c(Cl)c1 ?
158%
